This listing pairs compounds with measured pIC50.
Test system: ITK phosphorylation of its substrate, PLCγ1, at Y783
Assay overview: ITK target modulation assay (phospho-Y783 PLCγ1 immunoblot in Jurkat T cells)
Format: cell-based
Stated conditions: Homo sapiens, Jurkat, 2 h, 2 hours compound, CD3/CD28 Dynabeads stimulation 100 sec, anti-phospho-Y783 PLCγ1 immunoblot, read-out: PLC-γ Inhibition IC50
pIC50: −log10 of the molar value.

// below: answered compounds
Smiles code	Value type	Value
COc1cc(NC(=O)/C=C/CN(C)C)cc(-c2cnc3[nH]cc(-c4ccnc(F)c4)c3c2)c1	pIC50	≥ 6.00
C=CC(=O)Nc1cc(-c2cnc3[nH]cc(-c4cccc(C)c4)c3c2)cc(C(F)(F)F)c1	pIC50	< 5.30
C=CC(=O)Nc1cc(OC)cc(-c2cnc3[nH]cc(-c4ccnc5[nH]ccc45)c3c2)c1	pIC50	≥ 6.00
CN(C)C/C=C/C(=O)Nc1cncc(-c2cnc3[nH]cc(-c4ccnc(C#N)c4)c3c2)c1	pIC50	≥ 6.00
C=CC(=O)Nc1cncc(-c2cnc3[nH]cc(-c4cccc(C(F)(F)F)c4)c3c2)c1	pIC50	< 5.30

get_value(item= COc1cc(NC(=O)/C=C/CN(C)C)cc(-c2cnc3[nH]cc(-c4ccnc(C#N)c4)c3c2)c1 , readout=pIC50) returns ≥ 6.00

get_value(item= C=CC(=O)Nc1cc(OC)cc(-c2cnc3[nH]cc(-c4ccnc(NC)n4)c3c2)c1 , readout=pIC50) returns ≥ 6.00

get_value(item= C=CC(=O)Nc1cc(-c2cnc3[nH]cc(-c4ccnc(C#N)c4)c3c2)cc(-c2cnn(C)c2)c1 , readout=pIC50) returns ≥ 6.00

get_value(item= CN(C)C/C=C/C(=O)N(C)c1cncc(-c2cnc3[nH]cc(-c4ccnc(F)c4)c3c2)c1 , readout=pIC50) returns ≥ 6.00

get_value(item= C=CC(=O)Nc1cc(-c2cnc3[nH]cc(-c4cccc(C#N)c4)c3c2)cc(C(F)(F)F)c1 , readout=pIC50) returns ≥ 6.00

get_value(item= Cc1cc(-c2c[nH]c3ncc(-c4cncc(NC(=O)/C=C/CN(C)C)c4)cc23)ccn1 , readout=pIC50) returns ≥ 6.00

get_value(item= C=CC(=O)N(C)c1cc(OC)cc(-c2cnc3[nH]cc(-c4cccc(C#N)c4)c3c2)c1 , readout=pIC50) returns ≥ 6.00

get_value(item= C=CC(=O)Nc1cc(-c2cnc3[nH]cc(-c4cccc(C#N)c4)c3c2)cc(-c2cnn(C)c2)c1 , readout=pIC50) returns ≥ 6.00

---

Test system: ITK phosphorylation of its substrate, PLCγ1, at Y783
Assay overview: ITK target modulation assay (phospho-Y783 PLCγ1 immunoblot in Jurkat T cells)
Format: cell-based
Stated conditions: Homo sapiens, Jurkat, 2 h, 2 hours compound, CD3/CD28 Dynabeads stimulation 100 sec, anti-phospho-Y783 PLCγ1 immunoblot, read-out: PLC-γ Inhibition IC50
This listing pairs molecules with measured IC50.

// below: answered molecules
Smiles code	Tested target	Value type	Value
C=CC(=O)Nc1cc(-c2cnc3[nH]cc(-c4ccnc(C#N)c4)c3c2)cc(C(F)(F)F)c1	ITK phosphorylation of its substrate, PLCγ1, at Y783	IC50	≤ 1000 nM
CN(C)C/C=C/C(=O)Nc1cc(-c2cnc3[nH]cc(-c4ccnc5[nH]ccc45)c3c2)cc(C(F)(F)F)c1	ITK phosphorylation of its substrate, PLCγ1, at Y783	IC50	1000 to 5000 nM

Now for another entry.
get_value(item= CN(C)C/C=C/C(=O)Nc1cc(-c2cnc3[nH]cc(-c4cccc(C#N)c4)c3c2)cc(C(F)(F)F)c1 , readout=IC50) returns ≤ 1000 nM
